Source: patent US20140087995A1

Biological target: T1, human calcitonin receptor (human, UniProt P30988 25-474)
T1 sequence (looked up): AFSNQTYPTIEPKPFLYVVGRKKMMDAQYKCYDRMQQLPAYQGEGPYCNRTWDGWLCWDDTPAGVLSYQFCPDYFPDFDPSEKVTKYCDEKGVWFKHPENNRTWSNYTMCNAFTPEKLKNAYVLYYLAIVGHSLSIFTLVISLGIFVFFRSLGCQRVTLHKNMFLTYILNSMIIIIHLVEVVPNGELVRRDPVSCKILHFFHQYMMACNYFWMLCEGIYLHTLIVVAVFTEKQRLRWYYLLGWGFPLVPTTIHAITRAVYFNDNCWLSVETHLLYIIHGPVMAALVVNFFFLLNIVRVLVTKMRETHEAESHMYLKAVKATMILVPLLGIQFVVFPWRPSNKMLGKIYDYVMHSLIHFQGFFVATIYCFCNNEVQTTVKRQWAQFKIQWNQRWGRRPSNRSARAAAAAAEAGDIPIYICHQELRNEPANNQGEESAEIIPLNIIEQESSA
Assay: cell-based or functional assay
Numbered stars: 1 amine (or outer) side, 2 acyl side, 3 side chain; on linkers, the order of the positions; unused ones are H or OH. Bridge positions count the residues as written; N and C are the ends. * marks the point of attachment. C20 diacid = O=C(O)CCCCCCCCCCCCCCCCCCC(=O)*; γGlu = O=C(O)[C@H](CCC(=O)[*:2])N[*:1]
Assay Readout: Ratio hCT/hAmylin funct. (ratio)
Give just the number in ratio; leave the unit off.

{C20 diacid-γGlu}-GRCNTATCATQRLAHFLRHSSPNFGAIPSSTNVGPNTY-NH2 (disulfide 3-8 (inferred))	2.9
{C20 diacid-γGlu}-GRCNTATCATQRLAAFLRHSSPNFGAIPSSTNVGHNTY-NH2 (disulfide 3-8 (inferred))	4.9
{C20 diacid-γGlu}-KCNTATCATQRLAEFLRHSSPNFGAIPSSTNVGSNTP-NH2 (disulfide 2-7, also called compound 8)	1.1

Now consider a different binder.
Looking up {C20 diacid-γGlu}-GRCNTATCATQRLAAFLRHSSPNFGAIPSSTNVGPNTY-NH2 (disulfide 3-8 (inferred)) , I found its Ratio hCT/hAmylin funct. recorded as 2.1
